# systemTested: SACE_5754 (TetR family regulator) (Saccharopolyspora erythraea A226?)
# Sequence: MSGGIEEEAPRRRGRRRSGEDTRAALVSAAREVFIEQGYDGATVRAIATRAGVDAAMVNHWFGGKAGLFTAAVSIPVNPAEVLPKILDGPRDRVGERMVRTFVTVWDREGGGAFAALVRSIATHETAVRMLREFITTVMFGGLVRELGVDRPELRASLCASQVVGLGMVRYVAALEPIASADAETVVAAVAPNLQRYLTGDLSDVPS
# testSummary: EMSA
# conditionSet: EMSA: 10 mM Tris pH 7.5, 5 mM MgCl2, 60 mM KCl, 10 mM DTT, 50 mM EDTA (so in the source), 10% glycerol, 30 C 10 min, 20 uL; 6% native PAGE, 1x TAE. Footprinting: …
readout: binding

sequenceData	systemTested	experimentalValue
GGCGGGCAGGAAATCAACACTTGTTGAATTACGGTCGCGCACGCGCTCCGCGATCGCGCGGACACTTACCGCTTCGGGCGGAAATGCATTGCAAGCAAAGAAGATTGGGCCGTTCGGCGGCATCCGGGCCGAGTGGTCAAGCGCACAGAGAACTGAGTTGCCCGCGCCCGTCCGTGCGATGCATGCTTGCGTCCAGCAACTAGTTGGTTGCTGCAATCAAATCGGTTGCGCTCGCCGGGGG (double strand) [Probe 1]	SACE_5754 (TetR family regulator) (Saccharopolyspora erythraea A226?)	binds
TGCCCGAAAGGTAACCCCGCGGCGGGCAGGAAATCAACACTTGTTGAATTACGGTCGCGCACGCGCTCCGCGATCGCGCGGACACTTACCGCTTCGGGCGGAAATGCATTGCAAGCAAAGAAGATTGGGCCGTTCGGCGGCATCCGGGCCGAGTGGTCAAGCGCACAGAGAACTGAGTTGCCCGCGCCCGTCCGTGCGATGCATGCTTGCGTCCAGCAACTAGTTGGTTGCTGCAATCAAATCGGTTGCGCTCGCCGGGGG (double strand) [P0388-0389]	SACE_5754 (TetR family regulator) (Saccharopolyspora erythraea A226?)	binds
TCACCACCTGAAACCGCCACCGTTTTCCCGGAATCCGGCCACCGGAACCGGACCGGCCGAAATGGACATTCCGCCACGGTGCCGCGGGCGCCACCCGCACGCACGTTGAATTCAACACATGTTCAACAGCGTCGGAGGCGGGGATAATCGAACCCTGAGCGCCCGCCGAGCGTTCGCCACGGCCGCCATCGTCCGCGTGAGGAACCCATGACCAAGCA (double strand) [P3599]	SACE_5754 (TetR family regulator) (Saccharopolyspora erythraea A226?)	binds
CATCGTGCCCAGCCAGTCGAGGAGTGCGGTTTCGTCGGCCATGCCGGGAACTTCGTCGATGGTGGTCAACGTTCTCCTCGCGCAGCAGGTCGTTTCCACGTCGGCGAACACGCGTCGCGATCTTGAGCTTAGTCGCGCGCCGGACGGGGTGTCGAGACTTCCGCGGTGGCGGTGGGAACAGTGAGCACGGCGTCGAACGCGTCGCGCAGCGGCGTCCGCATCCACGTGCTCTGGGAGCGGATCCGGTCC (double strand) [PeryK]	SACE_5754 (TetR family regulator) (Saccharopolyspora erythraea A226?)	no binding
CGGACCGGAGTTCGAGGTACGCGGCTTGCAGGTCCAGGAAGGGGACGTCCATGCGAGTGTCCGTTCGAGTGGCGGCTTGCGCCCGATGCTAGTCGCGGTTGATCGGCGATCGCAGGTGCACGCGGTCGATCTTGACGGCTGGCGAGAGGTGCGGGGAGGATCTGACCGACGCGGTCCACACGTGGCACCGCGATGCTGTTGTGGGCTGGACAATCGTGCCGGTTGGTAGGATCCAGCGGTGAGCAGTTCGGACGAGCAGCCGCGCCCGCGTCGCCGCAACCAGGATCGGCAGCAC (double strand) [PeryCI-ermE]	SACE_5754 (TetR family regulator) (Saccharopolyspora erythraea A226?)	no binding
CTGTGCAGTACCTGGAGGGCGGACCCTCCGGACGCGGGTTGTTCGTCGGTGTGCGCGGATGACCCGTGCGTTCGCGTTTTCCGTTCCTGGCACAGGTGATCCGCTCCACGGGCCCTTTCCCCGCCGTGACCGGACCCTTACAGTGAGTGCGGGTCTTGATCGACAACGCCCGGCGGCAGCAAGCGGAGCCGTCGACGACACCGCAGGGAGAGTCGATGGGTGATCGGACCGGCGACCGGACGATTCCGGAATCCTCGCAGACCGCAACGCGTTTCCTGCTCGGC (double strand) [PeryBVI]	SACE_5754 (TetR family regulator) (Saccharopolyspora erythraea A226?)	no binding
GGTGGCTTCTGGCGTGCTCATAACGCGTTCAGCGTATCCAGTCGGCTTCCGCCCTTGACCGGCGAGTCCCGGCAGGGCACCCTGAAGTTATTCAACATGCGTTGAAAACTTGGAGGATCGCGATGGAGCGAACGACGTGTTGC (double strand) [P6148-6149]	SACE_5754 (TetR family regulator) (Saccharopolyspora erythraea A226?)	binds

FYI, the data here is from paper PMC6346578.
